Test: Conversion of Hipp-Arg by purified HCPB mutants, 30 minutes, HPLC (Example 17)
Type: biochemical
Conditions: enzyme 2.5 μg/ml; 0.5 mM substrate; 30 minutes at 37° C.
measurement.type: Hipp-Arg (% conversion) (%)

molecule	measurement.type	reported.result
[I201S, D253K]: HCPB mutant with I201S and D253K (protein, UniProt P15086 111-417, looked up, variant I201S D253K) Carboxypeptidase B: ATGHSYEKYNKWETIEAWTQQVATENPALISRSVIGTTFEGRAIYLLKVGKAGQNKPAIFMDCGFHAREWISPAFCQWFVREAVRTYGREIQVTELLDKLDFYVLPVLNIDGYIYTWTKSRFWRKTRSTHTGSSCIGTDPNRNFDAGWCEIGASRNPCDETYCGPAAESEKETKALADFIRNKLSSIKAYLTIHSYSQMMSYPYSYAYKLGENNAELNALAKATVKELASLHGTKYTYGPGATTIYPAAGGSKDWAYDQGIRYSFTFELRDTGRYGFLLPESQIRATCEETFLAIKYVASYVLEHLY	Hipp-Arg (% conversion)	0
